Recorded values, source patent US20220220103A1.

Consider the following compounds and their measured log10(IC50) readings.
Target: CDK4-CYCLIND1 (Homo sapiens, UniProt P11802)
Sequence (P11802 whole entry): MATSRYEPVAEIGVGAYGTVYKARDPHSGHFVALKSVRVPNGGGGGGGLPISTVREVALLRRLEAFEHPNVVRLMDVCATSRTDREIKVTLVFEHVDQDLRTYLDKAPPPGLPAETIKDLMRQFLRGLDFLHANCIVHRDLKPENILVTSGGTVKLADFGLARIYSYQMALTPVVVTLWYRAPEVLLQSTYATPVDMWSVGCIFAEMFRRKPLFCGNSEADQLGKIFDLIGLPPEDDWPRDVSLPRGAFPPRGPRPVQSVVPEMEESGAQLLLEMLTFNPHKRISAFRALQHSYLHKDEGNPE
Sequence (P24385 whole entry partner): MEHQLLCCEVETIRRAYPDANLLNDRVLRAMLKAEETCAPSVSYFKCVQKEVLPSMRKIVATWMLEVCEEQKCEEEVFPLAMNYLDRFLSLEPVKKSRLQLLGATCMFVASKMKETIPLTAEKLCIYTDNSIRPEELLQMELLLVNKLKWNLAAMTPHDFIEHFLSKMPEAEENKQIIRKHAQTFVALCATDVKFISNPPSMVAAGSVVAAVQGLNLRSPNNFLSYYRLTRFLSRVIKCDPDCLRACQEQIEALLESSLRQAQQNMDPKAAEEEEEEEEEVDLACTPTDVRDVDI
Experiment: Microfluidic LabChip inhibition assay, CDK4-CYCLIND1
Assay type: biochemical
Details: Table 2; ATP 200 μM, 25° C.; read-out: CDK4 IC50
The figures below represent log10 of IC50, where IC50 is stated in nM.

Guide cases for log10(IC50), answers given:
| structureSmiles | measuredTarget | log10(IC50) |
| --- | --- | --- |
| CN(C)CCOc1ccc(Nc2ncc3cc(C#N)c(=O)n(C4CCCC4)c3n2)cn1 | CDK4-CYCLIND1 (Homo sapiens, UniProt P11802) | 1.58 |
| CN(C)[C@H]1CCN(C(=O)c2ccc(Nc3ncc4cc(C#N)c(=O)n(C5CCCC5)c4n3)cc2F)C1 | CDK4-CYCLIND1 (Homo sapiens, UniProt P11802) | 1.12 |
| CN1CCN(c2ccc(Nc3ncc4cc(C#N)c(=O)n(C5CCCC5)c4n3)c(F)c2)CC1 | CDK4-CYCLIND1 (Homo sapiens, UniProt P11802) | 2.66 |
| CN1CCN(c2ccc(Nc3ncc4cc(C#N)c(=O)n(C5CCCC5)c4n3)cn2)CC1 | CDK4-CYCLIND1 (Homo sapiens, UniProt P11802) | 1.06 |
| N#Cc1cc2cnc(Nc3ccc(N4CCNCC4)cn3)nc2n(C23CC(C2)C3)c1=O | CDK4-CYCLIND1 (Homo sapiens, UniProt P11802) | 2.49 |
| N#Cc1cc2cnc(Nc3ccc(N4CCC(N5CCOCC5)CC4)c(F)c3)nc2n(C2CCCC2)c1=O | CDK4-CYCLIND1 (Homo sapiens, UniProt P11802) | 0.90 |
| CN(C)[C@H]1CCN(c2ccc(Nc3ncc4cc(C#N)c(=O)n(C5CCCC5)c4n3)cc2)C1 | CDK4-CYCLIND1 (Homo sapiens, UniProt P11802) | 0.36 |

# next compound below
Input line: Param item = `N#Cc1cc2cnc(Nc3ccc(OCCN4CCCCC4)nc3)nc2n(C2CCCC2)c1=O` ; retrieve measured log10(IC50).
Output line: 1.46

###

Target: UniProtKB P50613
Sequence (P50613 whole entry): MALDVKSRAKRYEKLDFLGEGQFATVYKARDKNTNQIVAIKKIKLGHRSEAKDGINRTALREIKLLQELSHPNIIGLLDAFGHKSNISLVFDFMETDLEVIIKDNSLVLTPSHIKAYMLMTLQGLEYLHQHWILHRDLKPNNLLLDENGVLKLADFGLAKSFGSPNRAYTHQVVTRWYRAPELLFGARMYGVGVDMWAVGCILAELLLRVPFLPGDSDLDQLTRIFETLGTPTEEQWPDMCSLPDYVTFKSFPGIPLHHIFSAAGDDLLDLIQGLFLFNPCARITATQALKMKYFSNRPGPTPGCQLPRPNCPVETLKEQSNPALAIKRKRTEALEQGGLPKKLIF
Sequence (P51946 whole entry partner): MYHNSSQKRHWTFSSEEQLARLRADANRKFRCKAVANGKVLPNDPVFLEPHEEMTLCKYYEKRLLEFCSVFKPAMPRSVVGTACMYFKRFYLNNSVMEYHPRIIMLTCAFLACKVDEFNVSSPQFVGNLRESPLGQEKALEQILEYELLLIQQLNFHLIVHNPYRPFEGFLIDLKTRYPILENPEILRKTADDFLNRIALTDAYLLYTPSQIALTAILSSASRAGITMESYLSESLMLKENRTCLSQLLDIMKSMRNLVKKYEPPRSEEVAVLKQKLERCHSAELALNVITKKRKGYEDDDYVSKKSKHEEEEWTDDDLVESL
Sequence (P51948 whole entry partner): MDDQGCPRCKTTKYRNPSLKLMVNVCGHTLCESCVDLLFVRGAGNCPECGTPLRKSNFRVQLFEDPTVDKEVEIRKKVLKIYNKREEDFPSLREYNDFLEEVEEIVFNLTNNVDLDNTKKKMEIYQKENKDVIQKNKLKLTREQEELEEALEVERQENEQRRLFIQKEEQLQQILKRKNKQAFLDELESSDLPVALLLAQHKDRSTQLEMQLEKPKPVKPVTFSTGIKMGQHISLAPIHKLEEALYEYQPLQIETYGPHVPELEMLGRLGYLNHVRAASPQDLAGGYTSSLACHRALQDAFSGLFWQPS
Experiment: Inhibition assay, CDK7 CyclinH
Assay type: biochemical
Settings: Table 3b
Binary label based on IC50 with cut-off 1 µM: below gives Met, not below gives Not met.

Completed entries (count: 6):
| molecule | class |
| --- | --- |
| CC(=O)c1c(C)c2cnc(Nc3ccc(OCCN(C)C)c(C)c3)nc2n(C2CCCC2)c1=O [Compound B61] | Not met |
| Cc1c(C(=O)N(C)C)c(=O)n(C2CCCC2)c2nc(Nc3ccc(N4CC(C)NC(C)C4)cc3)ncc12 (stereo not shown) [Compound B151] | Not met |
| CC(=O)c1c(C)c2cnc(Nc3ccc(OCCN(C)C)cc3)nc2n(C2CCCC2)c1=O [Compound B60] | Not met |
| Cc1c(C(=O)N(C)C)c(=O)n(C23CC(C2)C3)c2nc(NC3CC4CCC3C4)ncc12 (stereo not shown) [Compound B157] | Not met |
| CS(=O)(=O)N1CCC(Nc2ncc3cc(C#N)c(=O)n(C45CC(C4)C5)c3n2)CC1 [Compound B113] | Not met |
| CC(=O)c1c(C)c2cnc(Nc3ccc(OCCN4CCCC4)cn3)nc2n(C2CCCC2)c1=O [Compound B66] | Not met |

Input line: Quick check: IC50 of CN1CC2(C1)CN(c1ccc(Nc3ncc4cc(C#N)c(=O)n(C5CCCC5)c4n3)cc1)C2 [Compound B159] under 1 µM?
Output line: Not met

Input line: Quick check: IC50 of Cc1c(C(=O)N(C)C)c(=O)n(C23CC(C2)C3)c2nc(NC3CCN(S(C)(=O)=O)CC3)ncc12 [Compound B156] under 1 µM?
Output line: Not met

Input line: Quick check: IC50 of CN(C)CCOc1ccc(Nc2ncc3cc(C#N)c(=O)n(C45CC(C4)C5)c3n2)nc1 [Compound B149] under 1 µM?
Output line: Not met

Input line: Quick check: IC50 of CN(C)C(=O)c1cc2cnc(NC3CCN(S(C)(=O)=O)CC3)nc2n(C2CCCC2)c1=O [Compound B153] under 1 µM?
Output line: Not met

Input line: Quick check: IC50 of N#Cc1cc2cnc(Nc3ccc(N4CCN(CCO)CC4)c(F)c3)nc2n(C2CCCC2)c1=O [Compound B106] under 1 µM?
Output line: Met

Input line: Quick check: IC50 of CC(=O)c1c(C)c2cnc(Nc3ccc(N(C)CCN(C)C)cc3)nc2n(C23CC(C2)C3)c1=O [Compound B154] under 1 µM?
Output line: Met

Input line: Quick check: IC50 of CC(=O)c1c(C)c2cnc(Nc3ccc(OCCN(C)C)cc3)nc2n(C2CCCC2)c1=O [Compound B59] under 1 µM?
Output line: Met

Input line: Quick check: IC50 of CS(=O)(=O)N1CCC(Nc2ncc3cc(C#N)c(=O)n(C4CCCC4)c3n2)CC1 [Compound B152] under 1 µM?
Output line: Met

Input line: Quick check: IC50 of CC(=O)c1c(C)c2cnc(Nc3ccc(N4CCN(C)CC4)cn3)nc2n(C23CC(C2)C3)c1=O [Compound B93] under 1 µM?
Output line: Not met

Input line: Quick check: IC50 of CC(=O)c1c(C)c2cnc(Nc3ccc(N4CCN(C)CC4)cc3)nc2n(C23CC(C2)C3)c1=O [Compound B96] under 1 µM?
Output line: Not met
